Biological target: T1, Acro SARS-CoV-2 (COVID-19) S1 protein (SARS-CoV-2, UniProt P0DTC2 16-685)
T1 construct: also called SARS-CoV-2 S1
Experiment: SPR
pKd: −log10 of the molar value.
Some binders, each annotated with its measured pKd.
OBSERVED_PROPERTY: pKd

1) variant 6-46 (Fc fusion) VHH: EVQLVESGGGLVQPGGSLRLSCAASGLTFSAMGWFRQAPGKEREFVALIRRDGSTIYADSVKGRFTISADNSKNTAYLQMNSLKPEDTAVYYCAALGILFGYDAFDIWGQGTLVTVSS : 7.74
2) variant 6-63 (Fc fusion, also called VHH nanobody 6-63) VHH: EVQLVESGGGLVQPGGSLRLSCAASGQTFNMGWFRQAPGKEREFVAAIGSGGSTSYADSVKGRFTISADNSKNTAYLQMNSLKPEDTAVYYCWRLGNDYFDYWGQGTLVTVSS : 7.66
